Parameter: AC50. Scope: all listed entries.
# SYSTEM: human PAH with the R408W mutation (A375 R408W cells) (Homo sapiens, UniProt P00439, R408W)
# Construct: expressed in transfected cells
# PROCEDURE_SUMMARY: Cell Based Phenylalanine Flux Assay
# MEASUREMENT_SETUP: A375 R408W cells; 24 hrs with compound, then 20 μM sepiapterin and 800 μM 13C9,15N-Phenylalanine for 4 hours; 13C-Tyrosine by LC-MS; average where tested multiple times

| SUBSTANCE_SMILES | RESULT |
| --- | --- |
| CC(C)(O)c1nc(C(F)F)c(C(=O)N2CCc3[nH]cnc3[C@H]2c2nc3c(F)ccc(F)c3o2)o1 | ≤ 500 nM |
| O=C(c1nnc(-c2ncccc2F)o1)N1CCc2[nH]cnc2[C@@H]1c1nc2cccc(C(F)(F)F)c2o1 | 500 to 1000 nM |
| COc1ccc2c(C(=O)N3CCc4[nH]cnc4[C@@H]3c3nc4cccc(F)c4o3)cnn2c1 | 1000 to 5000 nM |

// moving on: another record for AC50
Problem: Return reported AC50; argument: O=C(c1oc(-c2cccnc2)nc1C(F)F)N1CCc2[nH]cnc2[C@@H]1c1nc2cc(F)ccc2o1
Solution: 500 to 1000 nM

---

Parameter: AC50. Scope: all listed entries.
# SYSTEM: human PAH with the R408W mutation (A375 R408W cells) (Homo sapiens, UniProt P00439, R408W)
# Construct: expressed in transfected cells
# Sequence (P00439 1-452 R408W): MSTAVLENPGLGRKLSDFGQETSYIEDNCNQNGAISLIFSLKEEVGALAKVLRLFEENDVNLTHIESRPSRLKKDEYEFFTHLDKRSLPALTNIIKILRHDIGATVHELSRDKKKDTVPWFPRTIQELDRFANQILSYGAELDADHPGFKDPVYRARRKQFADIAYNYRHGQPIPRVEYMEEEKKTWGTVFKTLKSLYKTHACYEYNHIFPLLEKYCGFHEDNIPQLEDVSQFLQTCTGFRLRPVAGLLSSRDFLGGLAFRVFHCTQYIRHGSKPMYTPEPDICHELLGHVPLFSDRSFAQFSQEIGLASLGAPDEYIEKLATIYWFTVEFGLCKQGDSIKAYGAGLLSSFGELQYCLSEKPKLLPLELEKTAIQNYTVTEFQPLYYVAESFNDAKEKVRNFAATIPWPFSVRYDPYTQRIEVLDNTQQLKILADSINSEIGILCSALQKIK
# PROCEDURE_SUMMARY: Cell Based Phenylalanine Flux Assay
# MEASUREMENT_SETUP: A375 R408W cells; 24 hrs with compound, then 20 μM sepiapterin and 800 μM 13C9,15N-Phenylalanine for 4 hours; 13C-Tyrosine by LC-MS; average where tested multiple times

Problem: Return reported AC50; argument: Cc1ccc2c(C(=O)N3CCc4[nH]cnc4[C@H]3c3nc4cc(F)ccc4o3)cnn2c1
Solution: 1 to 5 µM

Problem: Queued: Cn1nc(C(F)F)nc1C(=O)N1CCc2[nH]cnc2[C@@H]1c1nc2cccc(F)c2o1
Solution: 1 to 5 µM

---

Parameter: AC50. Scope: all listed entries.
# SYSTEM: human PAH with the R408W mutation (A375 R408W cells) (Homo sapiens, UniProt P00439, R408W)
# Construct: expressed in transfected cells
# PROCEDURE_SUMMARY: Cell Based Phenylalanine Flux Assay
# MEASUREMENT_SETUP: A375 cells expressing R408W PAH; 24 hrs with compound, then 20 μM sepiapterin and 800 μM 13C9,15N-Phenylalanine for 4 hours; 13C-Tyrosine by LC-MS; average where tested multiple times

For orientation, consider the following solved cases.
| COMPOUND | RESULT |
| --- | --- |
| O=C(c1nncn1C1CC1)N1CCc2[nH]cnc2C1c1nc2cccc(F)c2o1 (stereo not drawn) | 1 to 5 µM |
| CC(=O)Cn1cc(C(=O)N2CCc3[nH]cnc3[C@H]2c2nc3cc(F)ccc3o2)cn1 (single isomer, unassigned) | ≥ 5 µM |
| Cc1ccc2oc(C3c4nc[nH]c4CCN3C(=O)c3cnco3)nc2c1 (stereo not drawn) | ≥ 5 µM |
| O=C(CCc1cncs1)N1CCc2[nH]cnc2C1c1nc2c(F)cccc2o1 (stereo not drawn) | ≥ 5 µM |
| CC(C)(O)c1nc(C(=O)N2CCc3[nH]cnc3C2c2nc3ccc(F)cc3o2)no1 (stereo not drawn) | ≥ 5 µM |

Problem: Return reported AC50; argument: Cn1nc(C(C)(C)O)nc1C(=O)N1CCc2[nH]cnc2C1c1nc2cccc(F)c2o1 (stereo not drawn)
Solution: ≥ 5 µM

Problem: Queued: COC(C)(C)c1nc(C)c(C(=O)N2CCc3[nH]cnc3C2c2nc3cc(F)ccc3o2)o1 (stereo not drawn)
Solution: 1 to 5 µM

Problem: Queued: Cc1cc(-c2nnc(C(=O)N3CCc4[nH]cnc4C3c3nc4cc(F)ccc4o3)o2)nn1C (stereo not drawn)
Solution: 1 to 5 µM

Problem: Queued: CC(C)(O)c1cc(C(=O)N2CCc3[nH]cnc3C2c2nc3c(F)cccc3o2)no1 (stereo not drawn)
Solution: ≥ 5 µM

Problem: Queued: Nc1cc2c(C(=O)N3CCc4[nH]cnc4C3c3nc4cc(F)ccc4o3)cnn2cc1F (stereo not drawn)
Solution: 1 to 5 µM

Problem: Queued: CC(C)(O)c1cc(C(=O)N2CCc3[nH]cnc3C2c2nc3ccc(F)cc3o2)on1 (stereo not drawn)
Solution: 1 to 5 µM

Problem: Queued: Cc1ccc2oc(C3c4nc[nH]c4CCN3C(=O)c3nnc(C(C)(C)O)o3)nc2c1 (stereo not drawn)
Solution: 1 to 5 µM

Problem: Queued: O=C(c1nnc(-c2ccn[nH]2)o1)N1CCc2[nH]cnc2C1c1nc2ccc(F)cc2o1 (stereo not drawn)
Solution: 1 to 5 µM

Problem: Queued: CC(C)(O)c1noc(C(=O)N2CCc3[nH]cnc3C2c2nc3cc(F)ccc3o2)n1 (stereo not drawn)
Solution: ≥ 5 µM

Problem: Queued: COc1ccc2oc(C3c4nc[nH]c4CCN3C(=O)c3cnn4cc(N5CCC(O)CC5)ccc34)nc2c1 (stereo not drawn)
Solution: ≥ 5 µM

---

# SYSTEM: human PAH with the R408W mutation (A375 R408W cells) (Homo sapiens, UniProt P00439, R408W)
# Construct: expressed in transfected cells
# PROCEDURE_SUMMARY: Cell Based Phenylalanine Flux Assay
# MEASUREMENT_SETUP: A375 R408W cells; 24 hrs with compound, then 20 μM sepiapterin and 800 μM 13C9,15N-Phenylalanine for 4 hours; 13C-Tyrosine by LC-MS; average where tested multiple times
ASSAY_READOUT: AC50

| COMPOUND | AC50 |
| --- | --- |
| O=C(CCc1nccs1)N1CCc2[nH]cnc2[C@@H]1c1nc2c(F)cccc2o1 [Example 398] | ≥ 5000 nM |
| O=C(c1nnc(-c2ccccn2)o1)N1CCc2[nH]cnc2[C@H]1c1nc2cc(F)cc(F)c2o1 [Example 580] | 500 to 1000 nM |
| COc1cccc2oc([C@H]3c4nc[nH]c4CCN3C(=O)c3oc(C(C)(C)O)nc3C(F)F)nc12 [Example 428] | 1000 to 5000 nM |
| Cc1cccc2oc([C@H]3c4nc[nH]c4CCN3C(=O)c3ncnn3C)nc12 [Example 902] | 1000 to 5000 nM |

Problem: Missing value: AC50, human PAH with the R408W mutation (A375 R408W cells) (Homo sapiens, UniProt P00439, R408W), entry CN1CCN(c2nc(C(F)F)c(C(=O)N3CCc4[nH]cnc4[C@@H]3c3nc4cccc(F)c4o3)o2)CC1 [Example 618] . Fill in?
Solution: 500 to 1000 nM

Problem: Queued: O=C(c1nnc(-c2ccccn2)o1)N1CCc2[nH]cnc2[C@@H]1c1nc2c(F)c(F)ccc2o1 [Example 630]
Solution: 1000 to 5000 nM

Problem: Queued: COc1cccc2nc([C@@H]3c4nc[nH]c4CCN3C(=O)c3nc(C)nn3C)oc12 [Example 909]
Solution: 1000 to 5000 nM

---

Parameter: AC50. Scope: all listed entries.
# SYSTEM: human PAH with the R408W mutation (A375 R408W cells) (Homo sapiens, UniProt P00439, R408W)
# Construct: expressed in transfected cells
# PROCEDURE_SUMMARY: Cell Based Phenylalanine Flux Assay
# MEASUREMENT_SETUP: A375 R408W cells; 24 hrs with compound, then 20 μM sepiapterin and 800 μM 13C9,15N-Phenylalanine for 4 hours; 13C-Tyrosine by LC-MS; average where tested multiple times

Problem: Return reported AC50; argument: O=C(c1ocnc1C(F)F)N1CCc2[nH]cnc2[C@@H]1c1nc2cccc(F)c2o1 [Example 900]
Solution: 0.5 to 1 µM

Problem: Queued: O=C(c1nnc(-c2ccccn2)o1)N1CCc2[nH]cnc2[C@H]1c1nc2cccc(C(F)(F)F)c2o1 [Example 838]
Solution: ≤ 0.5 µM

Problem: Queued: O=C(c1ocnc1C(F)F)N1CCc2[nH]cnc2[C@H]1c1nc2cccc(Br)c2o1 [Example 461]
Solution: ≤ 0.5 µM

Problem: Queued: CN1CCN(c2ccc3c(C(=O)N4CCc5[nH]cnc5[C@@H]4c4nc5cc(F)ccc5o4)cnn3c2)CC1 [Example 66]
Solution: ≥ 5 µM

Problem: Queued: CC(C)n1ncnc1C(=O)N1CCc2[nH]cnc2[C@@H]1c1nc2ccccc2o1 [Example 706]
Solution: 0.5 to 1 µM

Problem: Queued: O=C(c1oc(C2(O)CC2)nc1C(F)F)N1CCc2[nH]cnc2[C@H]1c1nc2ccc(F)cc2o1 [Example 237]
Solution: 1 to 5 µM

Problem: Queued: O=C(c1ocnc1C(F)F)N1Cc2[nH]cnc2[C@@H]1c1nc2ccccc2o1 [Example 922]
Solution: 1 to 5 µM

Problem: Queued: COc1cc(F)c2oc([C@H]3c4nc[nH]c4CCN3C(=O)c3ocnc3C(F)F)nc2c1 [Example 664]
Solution: ≤ 0.5 µM

Problem: Queued: O=C(c1nnc(-c2ccc(OC(F)(F)F)cn2)o1)N1CCc2[nH]cnc2[C@@H]1c1nc2cc(F)ccc2o1 [Example 672]
Solution: 1 to 5 µM

Problem: Queued: O=C(CC1CC1)N1CCc2[nH]cnc2[C@H]1c1nc2ccc(Br)cc2o1 [Example 3]
Solution: ≤ 0.5 µM

Problem: Queued: COc1cccc2nc([C@H]3c4nc[nH]c4CCN3C(=O)c3ocnc3C(F)F)oc12 [Example 458]
Solution: ≤ 0.5 µM

Problem: Queued: Cn1cc(-c2ccc3c(C(=O)N4CCc5[nH]cnc5[C@H]4c4nc5c(F)cccc5o4)cnn3c2)cn1 [Example 541]
Solution: ≤ 0.5 µM

Problem: Queued: Cn1nc(C(F)F)nc1C(=O)N1CCc2[nH]cnc2[C@H]1c1nc2cc(F)cc(F)c2o1 [Example 577]
Solution: 0.5 to 1 µM

Problem: Queued: Cn1cnc(-c2nnc(C(=O)N3CCc4[nH]cnc4[C@@H]3c3nc4c(F)ccc(F)c4o3)o2)c1 [Example 818]
Solution: 1 to 5 µM

Problem: Queued: O=C([C@@H]1CC1(F)F)N1CCc2[nH]cnc2[C@@H]1c1nc2cc(F)ccc2o1 [Example 62]
Solution: 1 to 5 µM

Problem: Queued: CN(C)CCc1cn2ncc(C(=O)N3CCc4[nH]cnc4[C@H]3c3nc4cc(F)ccc4o3)c2cc1Cl [Example 79]
Solution: 0.5 to 1 µM
